Assay details: chemical genetic growth profiling, strain panel (AID 1159580);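 further: tested at 20 µM; growth read once vehicle control cultures reached saturation at 30 °C; 1 = growth at the plate median or of vehicle wells; lower values mean less growth of the strain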
Measurement setup: S. cerevisiae deletion strains, growth OD, locus YDR335W, strain msn5, stronger effect = lower value
Screen size: about 5,500 compounds; about 2,000 (36%) were called active. Roughly 18% stayed inconclusive and do not appear here. Some of the results follow.
// normalized growth lookup, one value per entry
Measured metric: normalized growth

{"Compound": "CC(=O)O[C@@H]1CC[C@@]2(C)C(CC[C@]3(C)C2CC=C2C4CC(C)(C)CC[C@]4(C(=O)O)CC[C@]23C)C1(C)C (stereo partly specified)", "Measured metric": "normalized growth", "Recorded value": 0.957}
{"Compound": "CC(=O)NC(C(=O)O)C(C)(C)SN=O (stereo unspecified)", "Measured metric": "normalized growth", "Recorded value": 0.982}
{"Compound": "FC(F)(F)c1ccccc1-n1ccnc1", "Measured metric": "normalized growth", "Recorded value": 0.988}
{"Compound": "CC1(C)CC[C@]2(C(=O)O)CC[C@]3(C)C(=CCC4[C@@]5(C)CC[C@H](O)[C@@](C)(CO)C5CC[C@]43C)C2C1 (stereo partly specified)", "Measured metric": "normalized growth", "Recorded value": 1.02}
{"Compound": "CCCOc1ccccc1-c1nc2n[nH]nc2c(=O)[nH]1", "Measured metric": "normalized growth", "Recorded value": 1}
{"Compound": "O=c1[nH]cc(F)c(=O)[nH]1", "Measured metric": "normalized growth", "Recorded value": 0.538}
{"Compound": "CC1(C)CC[C@]2(C)CC[C@]3(C)C(=CCC4[C@@]5(C)CC[C@H](O)C(C)(C)C5CC[C@]43C)C2C1 (stereo partly specified)", "Measured metric": "normalized growth", "Recorded value": 1}
{"Compound": "CC1(C)CC[C@]2(C(=O)O)CC[C@]3(C)C(=CCC4[C@@]5(C)CC[C@@H](O)C(C)(C)C5CC[C@]43C)C2C1 (stereo partly specified)", "Measured metric": "normalized growth", "Recorded value": 1.02}
{"Compound": "NC12CC3CC(CC(C3)C1)C2", "Measured metric": "normalized growth", "Recorded value": 1.01}
{"Compound": "CCOc1ccc2nc3cc(N)ccc3c(N)c2c1", "Measured metric": "normalized growth", "Recorded value": 0.907}
{"Compound": "Cc1ccc(N=CN(C)C=Nc2ccc(C)cc2C)c(C)c1", "Measured metric": "normalized growth", "Recorded value": 0.966}
{"Compound": "COc1cc(C(=O)O[C@H]2CC[C@@]3(C)[C@@H]4CC[C@H]5[C@]6(O)C[C@H](O)[C@@]7(O)[C@@H](CN8C[C@@H](C)CC[C@H]8[C@@]7(C)O)[C@]6(O)C[C@@]53O[C@]24O)cc(OC)c1OC", "Measured metric": "normalized growth", "Recorded value": 1.01}
{"Compound": "CCOC(=O)OC(C)OC(=O)C1N2C(=O)C(NC(=O)[C@H](N)c3ccccc3)C2SC1(C)C (stereo partly specified)", "Measured metric": "normalized growth", "Recorded value": 0.979}
{"Compound": "Nc1c2c(nc3ccccc13)CCCC2", "Measured metric": "normalized growth", "Recorded value": 0.992}
{"Compound": "N=C(N)c1ccc(OCCCCCOc2ccc(C(=N)N)cc2)cc1", "Measured metric": "normalized growth", "Recorded value": 0.977}
{"Compound": "Nc1ccccc1C(=O)CC(N)C(=O)O (stereo unspecified)", "Measured metric": "normalized growth", "Recorded value": 1}
{"Compound": "COc1cc(N)c(Cl)cc1C(=O)NC1CCN(Cc2ccccc2)CC1", "Measured metric": "normalized growth", "Recorded value": 0.986}
{"Compound": "O=C(CNC(=O)c1ccc(Cl)cc1)NO", "Measured metric": "normalized growth", "Recorded value": 1.02}
{"Compound": "CC(CC(=O)C1OC1(C)C)C1C(=O)CC2(C)C3=CCC4C(C)(C)C(OC5OCC(O)C(O)C5O)CCC45CC35C(O)CC12C (stereo unspecified)", "Measured metric": "normalized growth", "Recorded value": 1.02}
{"Compound": "CC1(C)CCC2(C(=O)O)CCC3(C)C(=CCC4C5(C)CCC(O)C(C)(C)C5C(O)CC43C)C2C1 (stereo unspecified)", "Measured metric": "normalized growth", "Recorded value": 1.01}
{"Compound": "Clc1ccccc1C(c1ccccc1)(c1ccccc1)n1ccnc1", "Measured metric": "normalized growth", "Recorded value": 0.0619}

###

Assay details: chemical genetic growth profiling, strain panel (AID 1159580);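 further: tested at 20 µM; growth read once vehicle control cultures reached saturation at 30 °C; 1 = growth at the plate median or of vehicle wells; lower values mean less growth of the strain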
Measurement setup: S. cerevisiae deletion strains, growth OD, locus YPL031C, strain PHO85, stronger effect = lower value
In all, about 5,500 compounds went through this assay and about 2,000 (36%) were called active. Roughly 18% stayed inconclusive and do not appear here. Some of the results follow.
// normalized growth lookup, one value per entry

{"Molecule": "Cc1ccc(C)c(CSc2nc(C3CCCCC3)c(C#N)c(=O)[nH]2)c1", "normalized growth": 1.01}
{"Molecule": "CSc1n[nH]c(-c2cc(C(F)(F)F)cc(C(F)(F)F)c2)n1", "normalized growth": 0.885}
{"Molecule": "CC(C)Cc1ccc(C(C)C(=O)Nc2nn(C)c3ccccc23)cc1 (stereo unspecified)", "normalized growth": 0.941}
{"Molecule": "O=C(c1ccc(Cl)cc1)N(Cc1ccccc1)Cc1cccnc1", "normalized growth": 0.877}
{"Molecule": "Cc1nc(-c2ccccn2)[nH]c(=O)c1Cc1c(Cl)cccc1Cl", "normalized growth": 0.869}
{"Molecule": "Cc1ccc(S(=O)(=O)n2c(Sc3ccc([N+](=O)[O-])cc3[N+](=O)[O-])nc3cc(C)ccc32)cc1", "normalized growth": 0.951}
{"Molecule": "S=C(NNC(=S)NC1CC2C=CC1C2)Nc1ccc(Br)c(Cl)c1 (stereo unspecified)", "normalized growth": 0.928}
{"Molecule": "CCCc1nc(-c2ccccn2)[nH]c(=O)c1CC1CC1", "normalized growth": 0.941}
{"Molecule": "Cc1csc(NC(=O)Nc2ccc(C(F)(F)F)cc2)c1", "normalized growth": 0.773}
{"Molecule": "CCOC(=O)c1cc(CC)sc1NC(=O)c1ccc([N+](=O)[O-])o1", "normalized growth": 0.169}
{"Molecule": "O=S(=O)(NC(=S)Nc1ccc(Cl)c(Cl)c1)c1ccccc1", "normalized growth": 1.02}
{"Molecule": "O=C(c1cccs1)N(Cc1cccnc1)Cc1ccc(Cl)cc1Cl", "normalized growth": 0.927}
{"Molecule": "Fc1cccc(Cl)c1CSc1n[nH]c(-c2cc(C(F)(F)F)cc(C(F)(F)F)c2)n1", "normalized growth": 0.896}
{"Molecule": "COC(=O)c1cnn(-c2c(Cl)cccc2Cl)c1C=C(C#N)C#N", "normalized growth": 0.948}
{"Molecule": "Fc1ccc(NC(=S)N2CCCN(Cc3ccc(Cl)cc3Cl)CC2)cc1", "normalized growth": 1.02}
{"Molecule": "COc1ccc2nc3ccccc3c(N)c2c1", "normalized growth": 0.214}
{"Molecule": "O=[N+]([O-])c1cnc(Sc2nnc(SCc3cccc(C(F)(F)F)c3)s2)s1", "normalized growth": 0.103}
{"Molecule": "Nc1ccc(Sc2ccccc2)nc1Sc1ccccc1", "normalized growth": 0.906}
{"Molecule": "O=C(NCCNc1ncc(C(F)(F)F)cc1Cl)C(F)(F)Sc1ccccc1", "normalized growth": 0.912}
{"Molecule": "Clc1cc(Cl)cc(-c2nc(SCc3ccc(Cl)cc3Cl)n[nH]2)c1", "normalized growth": 0.927}
{"Molecule": "Cc1nc(-c2ccccn2)nc(SCc2ccccc2)c1Cl", "normalized growth": 0.791}

###

// normalized growth lookup, one value per entry
Assay details: chemical genetic growth profiling, strain panel (AID 1159580);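 further: tested at 20 µM; growth read once vehicle control cultures reached saturation at 30 °C; 1 = growth at the plate median or of vehicle wells; lower values mean less growth of the strain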
Measurement setup: S. cerevisiae deletion strains, growth OD, locus YEL003W, strain gim4, stronger effect = lower value
Screen size: about 5,500 compounds; about 2,000 (36%) were called active. Not shown: some 18% with an inconclusive outcome. Some of the results follow.

{"Compound": "CCC(C)C(=O)O[C@H]1[C@H](O)C2C(CN3CC(C)CCC3[C@@]2(C)O)C2C[C@]34O[C@]5(O)C(OC(=O)C(C)(O)CC)CC[C@@]3(C)C5C(OC(C)=O)[C@@H](OC(C)=O)C4[C@@]21O (some centres undefined)", "normalized growth": 1.02}
{"Compound": "C#C[C@]1(OC(C)=O)CCC2C3CCC4=CC(=O)CC[C@@H]4C3CC[C@@]21C (some centres undefined)", "normalized growth": 1.01}
{"Compound": "C[C@]12CCC(=O)C=C1CCC1C2[C@@H](O)C[C@@]2(C)C1CC[C@]2(O)C(=O)CO (some centres undefined)", "normalized growth": 1.01}
{"Compound": "O=c1oc2cc(O)ccc2s1", "normalized growth": 0.999}
{"Compound": "COc1ccc2c(c1)c(CC(=O)O)c(C)n2C(=O)c1ccc(Cl)cc1", "normalized growth": 1}
{"Compound": "CC(C)CC(N(C)C)C1(c2ccc(Cl)cc2)CCC1 (centres undefined)", "normalized growth": 1}
{"Compound": "NC12CC3CC(CC(C3)C1)C2", "normalized growth": 1.03}
{"Compound": "C#C[C@]1(O)CCC2C3CCC4=CC(=O)CC[C@@H]4C3CC[C@@]21C (some centres undefined)", "normalized growth": 0.97}
{"Compound": "Cc1cn([C@H]2C[C@H](N=[N+]=[N-])[C@@H](CO)O2)c(=O)[nH]c1=O", "normalized growth": 1.01}
